# System: NCI-H661
# assayMethodText: relative viability (nuclei count vs DMSO), 5 days (fraction); higher = more cells survive
# experimentalContext: first compound 2 µM
Measured relative viability, listed per entry.
In your answer, state the number alone without any accompanying words.

[
  {
    "molecule": "Cc1csc(=NC2CCCCC2)n1/N=C/c1ccc(O)c(O)c1O [MIM1] + Cc1cc(Nc2cc(N3CCN(C)CC3)nc(Sc3ccc(NC(=O)C4CC4)cc3)n2)n[nH]1 [Tozasertib] (partner 0.1 µM)",
    "system": "NCI-H661",
    "relative viability": 0.361
  },
  {
    "molecule": "CN1CCN(CCOc2cc(OC3CCOCC3)c3c(Nc4c(Cl)ccc5c4OCO5)ncnc3c2)CC1 [Saracatinib] + C[C@]1(O)C[C@@H](c2nc(-c3ccc4ccc(-c5ccccc5)nc4c3)c3c(N)nccn32)C1 [Linsitinib] (partner 1 µM)",
    "system": "NCI-H661",
    "relative viability": 0.376
  },
  {
    "molecule": "Cc1csc(=NC2CCCCC2)n1/N=C/c1ccc(O)c(O)c1O [MIM1] + CCNC(=O)c1noc(-c2cc(C(C)C)c(O)cc2O)c1-c1ccc(CN2CCOCC2)cc1 [Luminespib] (partner 0.01 µM)",
    "system": "NCI-H661",
    "relative viability": 0.86
  }
]

Kindly note the recorded relative viability for CN1CCN(CCOc2cc(OC3CCOCC3)c3c(Nc4c(Cl)ccc5c4OCO5)ncnc3c2)CC1 [Saracatinib] + CC(=O)Nc1cccc(-n2c(=O)n(C3CC3)c(=O)c3c(Nc4ccc(I)cc4F)n(C)c(=O)c(C)c32)c1 [Trametinib] (partner 0.02 µM) , which is 0.362

Kindly note the recorded relative viability for Cc1csc(=NC2CCCCC2)n1/N=C/c1ccc(O)c(O)c1O [MIM1] + CC(=O)Nc1cccc(-n2c(=O)n(C3CC3)c(=O)c3c(Nc4ccc(I)cc4F)n(C)c(=O)c(C)c32)c1 [Trametinib] (partner 0.02 µM) , which is 0.554

Kindly note the recorded relative viability for Cc1csc(=NC2CCCCC2)n1/N=C/c1ccc(O)c(O)c1O [MIM1] + CS(=O)(=O)CCNCc1ccc(-c2ccc3ncnc(Nc4ccc(OCc5cccc(F)c5)c(Cl)c4)c3c2)o1 [Lapatinib] (partner 2 µM) , which is 0.548

Kindly note the recorded relative viability for CN1CCN(CCOc2cc(OC3CCOCC3)c3c(Nc4c(Cl)ccc5c4OCO5)ncnc3c2)CC1 [Saracatinib] + O=C(CCCCCCC(=O)Nc1ccccc1)NO [Vorinostat] (partner 1 µM) , which is 0.693

Kindly note the recorded relative viability for CN1CCN(CCOc2cc(OC3CCOCC3)c3c(Nc4c(Cl)ccc5c4OCO5)ncnc3c2)CC1 [Saracatinib] + Nc1nc2[nH]cc(CCc3ccc(C(=O)N[C@@H](CCC(=O)O)C(=O)O)cc3)c2c(=O)[nH]1 [Pemetrexed] (partner 0.2 µM) , which is 0.699

Kindly note the recorded relative viability for Cc1csc(=NC2CCCCC2)n1/N=C/c1ccc(O)c(O)c1O [MIM1] + O=C(c1cc(Cc2n[nH]c(=O)c3ccccc23)ccc1F)N1CCN(C(=O)C2CC2)CC1 [Olaparib] (partner 8 µM) , which is 0.778

====

Measured relative viability, listed per entry.
# Test system: SK-LU-1
# assayMethodText: relative viability (nuclei count vs DMSO), 5 days (fraction); higher = more cells survive
# experimentalContext: first compound 0.002 µM

Worked set:
[
  {
    "compound": "CCNC(=O)c1noc(-c2cc(C(C)C)c(O)cc2O)c1-c1ccc(CN2CCOCC2)cc1 [Luminespib] + C[C@@H](Oc1cc(-c2cnn(C3CCNCC3)c2)cnc1N)c1c(Cl)ccc(F)c1Cl [Crizotinib] (partner 1 µM)",
    "reported": 0.992
  },
  {
    "compound": "CCNC(=O)c1noc(-c2cc(C(C)C)c(O)cc2O)c1-c1ccc(CN2CCOCC2)cc1 [Luminespib] + CS(=O)(=O)N1CCN(Cc2cc3nc(-c4cccc5[nH]ncc45)nc(N4CCOCC4)c3s2)CC1 [Pictilisib] (partner 1 µM)",
    "reported": 0.582
  }
]

Consider now this further compound.
Kindly note the recorded relative viability for CCNC(=O)c1noc(-c2cc(C(C)C)c(O)cc2O)c1-c1ccc(CN2CCOCC2)cc1 [Luminespib] + Cc1nc(Nc2ncc(C(=O)Nc3c(C)cccc3Cl)s2)cc(N2CCN(CCO)CC2)n1 [Dasatinib] (partner 0.075 µM) , which is 0.194

====

# Tested on: LK-2
# assayMethodText: relative viability (nuclei count vs DMSO), 5 days (fraction); higher = more cells survive
# experimentalContext: first compound 0.06325 µM
Measured relative viability, listed per entry.
In your answer, state the number alone without any accompanying words.

Worked set:
[
  {
    "compound": "CCNC(=O)c1noc(-c2cc(C(C)C)c(O)cc2O)c1-c1ccc(CN2CCOCC2)cc1 [Luminespib] + CC(=O)c1c(C)c2cnc(Nc3ccc(N4CCNCC4)cn3)nc2n(C2CCCC2)c1=O [Palbociclib] (partner 0.5 µM)",
    "reported": 0.0849
  },
  {
    "compound": "CCNC(=O)c1noc(-c2cc(C(C)C)c(O)cc2O)c1-c1ccc(CN2CCOCC2)cc1 [Luminespib] + Cc1nc(Nc2ncc(C(=O)Nc3c(C)cccc3Cl)s2)cc(N2CCN(CCO)CC2)n1 [Dasatinib] (partner 0.075 µM)",
    "reported": 0.146
  },
  {
    "compound": "CCNC(=O)c1noc(-c2cc(C(C)C)c(O)cc2O)c1-c1ccc(CN2CCOCC2)cc1 [Luminespib] + O=C(CCCCCCC(=O)Nc1ccccc1)NO [Vorinostat] (partner 1 µM)",
    "reported": 0.146
  },
  {
    "compound": "CCNC(=O)c1noc(-c2cc(C(C)C)c(O)cc2O)c1-c1ccc(CN2CCOCC2)cc1 [Luminespib] + CC(=O)Nc1cccc(-n2c(=O)n(C3CC3)c(=O)c3c(Nc4ccc(I)cc4F)n(C)c(=O)c(C)c32)c1 [Trametinib] (partner 0.02 µM)",
    "reported": 0.164
  }
]

Consider now this further compound.
Kindly note the recorded relative viability for CCNC(=O)c1noc(-c2cc(C(C)C)c(O)cc2O)c1-c1ccc(CN2CCOCC2)cc1 [Luminespib] + NC(=O)Nc1cc(-c2cccc(F)c2)sc1C(=O)N[C@H]1CCCNC1 [AZD7762] (partner 0.2 µM) , which is 0.0715

====

Measured relative viability, listed per entry.
# Test system: SW 1573
# assayMethodText: relative viability (nuclei count vs DMSO), 5 days (fraction); higher = more cells survive
# experimentalContext: first compound 2 µM
In your answer, state the number alone without any accompanying words.

[
  {
    "compound": "CN1CCN(CCOc2cc(OC3CCOCC3)c3c(Nc4c(Cl)ccc5c4OCO5)ncnc3c2)CC1 [Saracatinib] + Nc1ncn([C@H]2C[C@H](O)[C@@H](CO)O2)c(=O)n1 [Decitabine] (partner 2 µM)",
    "system": "SW 1573",
    "relative viability": 0.434
  }
]

Noted relative viability for CN1CCN(CCOc2cc(OC3CCOCC3)c3c(Nc4c(Cl)ccc5c4OCO5)ncnc3c2)CC1 [Saracatinib] + CC(=O)c1c(C)c2cnc(Nc3ccc(N4CCNCC4)cn3)nc2n(C2CCCC2)c1=O [Palbociclib] (partner 0.5 µM) , tested on SW 1573: 0.28

====

Measured relative viability, listed per entry.
# Tested on: HCC-44
# assayMethodText: relative viability (nuclei count vs DMSO), 5 days (fraction); higher = more cells survive
# experimentalContext: first compound 0.006325 µM
In your answer, state the number alone without any accompanying words.

Worked set:
[
  {
    "compound": "CCNC(=O)c1noc(-c2cc(C(C)C)c(O)cc2O)c1-c1ccc(CN2CCOCC2)cc1 [Luminespib] + Cc1cc(Nc2cc(N3CCN(C)CC3)nc(Sc3ccc(NC(=O)C4CC4)cc3)n2)n[nH]1 [Tozasertib] (partner 0.1 µM)",
    "system": "HCC-44",
    "relative viability": 0.766
  },
  {
    "compound": "CCNC(=O)c1noc(-c2cc(C(C)C)c(O)cc2O)c1-c1ccc(CN2CCOCC2)cc1 [Luminespib] + O=C(CCCCCCC(=O)Nc1ccccc1)NO [Vorinostat] (partner 1 µM)",
    "system": "HCC-44",
    "relative viability": 1.13
  },
  {
    "compound": "CCNC(=O)c1noc(-c2cc(C(C)C)c(O)cc2O)c1-c1ccc(CN2CCOCC2)cc1 [Luminespib] + Nc1ncn([C@H]2C[C@H](O)[C@@H](CO)O2)c(=O)n1 [Decitabine] (partner 2 µM)",
    "system": "HCC-44",
    "relative viability": 0.953
  },
  {
    "compound": "CCNC(=O)c1noc(-c2cc(C(C)C)c(O)cc2O)c1-c1ccc(CN2CCOCC2)cc1 [Luminespib] + Cc1nc(NC(=O)N2CCC[C@H]2C(N)=O)sc1-c1ccnc(C(C)(C)C(F)(F)F)c1 [Alpelisib] (partner 2 µM)",
    "system": "HCC-44",
    "relative viability": 0.886
  }
]

Kindly note the recorded relative viability for CCNC(=O)c1noc(-c2cc(C(C)C)c(O)cc2O)c1-c1ccc(CN2CCOCC2)cc1 [Luminespib] + Nc1nc2[nH]cc(CCc3ccc(C(=O)N[C@@H](CCC(=O)O)C(=O)O)cc3)c2c(=O)[nH]1 [Pemetrexed] (partner 0.2 µM) , which is 0.611

Kindly note the recorded relative viability for CCNC(=O)c1noc(-c2cc(C(C)C)c(O)cc2O)c1-c1ccc(CN2CCOCC2)cc1 [Luminespib] + CC(=O)c1c(C)c2cnc(Nc3ccc(N4CCNCC4)cn3)nc2n(C2CCCC2)c1=O [Palbociclib] (partner 0.5 µM) , which is 0.998

Kindly note the recorded relative viability for CCNC(=O)c1noc(-c2cc(C(C)C)c(O)cc2O)c1-c1ccc(CN2CCOCC2)cc1 [Luminespib] + CC(C)C[C@H](NC(=O)[C@H](Cc1ccccc1)NC(=O)c1cnccn1)B(O)O [Bortezomib] (partner 0.002 µM) , which is 0.881

Kindly note the recorded relative viability for CCNC(=O)c1noc(-c2cc(C(C)C)c(O)cc2O)c1-c1ccc(CN2CCOCC2)cc1 [Luminespib] + N=C(N)NC(=N)NCCc1ccccc1 [Phenformin] (partner 250 µM) , which is 0.163

Kindly note the recorded relative viability for CCNC(=O)c1noc(-c2cc(C(C)C)c(O)cc2O)c1-c1ccc(CN2CCOCC2)cc1 [Luminespib] + C[C@]1(O)C[C@@H](c2nc(-c3ccc4ccc(-c5ccccc5)nc4c3)c3c(N)nccn32)C1 [Linsitinib] (partner 1 µM) , which is 0.714
